Molecular target: LC3B (Homo sapiens, UniProt Q9GZQ8)
Assay: Fluorescence Polarization (FP) Assay: displacement of FITC-labeled peptide from GST-LC3B
Assay type: binding
Settings: Fluorescence Polarization assay; GST-LC3B 180 nM, FITC-labeled peptide 18 nM, 25° C.; read-out: IC50
pIC50: −log10 of the molar value.
OBSERVATION_TYPE: pIC50

molecule="CN(C)C=C1C(=O)CC(c2cn(C)c3ccccc23)CC1=O (centres unmarked)" measurement_target="LC3B (Homo sapiens, UniProt Q9GZQ8)" experimental_result="> 5.52"
molecule="O=C1CC(c2ccccc2[N+](=O)[O-])CC(=O)C1=CO (centres unmarked)" measurement_target="LC3B (Homo sapiens, UniProt Q9GZQ8)" experimental_result="4.82 to 5.52"
molecule="CN(C)CCCNC=C1C(=O)CC(c2ccccc2)CC1=O (centres unmarked)" measurement_target="LC3B (Homo sapiens, UniProt Q9GZQ8)" experimental_result="4.00 to 4.82"
molecule="CN(C)C=C1C(=O)CC(c2cccn2Cc2ccccc2)CC1=O (centres unmarked)" measurement_target="LC3B (Homo sapiens, UniProt Q9GZQ8)" experimental_result="4.82 to 5.52"
molecule="COc1ccc(C2CC(=O)C(=CNCCN3CCN(C(=O)N4CCOCC4)CC3)C(=O)C2)cc1 (centres unmarked)" measurement_target="LC3B (Homo sapiens, UniProt Q9GZQ8)" experimental_result="> 5.52"
molecule="CN(C)CCNC=C1C(=O)CC(c2cc(Cl)ccc2F)CC1=O (centres unmarked)" measurement_target="LC3B (Homo sapiens, UniProt Q9GZQ8)" experimental_result="> 5.52"
molecule="CN(C)C=C1C(=O)CC(c2cccc(C(F)(F)F)c2)CC1=O (centres unmarked)" measurement_target="LC3B (Homo sapiens, UniProt Q9GZQ8)" experimental_result="> 5.52"
molecule="O=C1CC(C(O)c2ccccc2)C(=O)/C1=C\\NCCN1CCN(CCO)CC1 (centres unmarked)" measurement_target="LC3B (Homo sapiens, UniProt Q9GZQ8)" experimental_result="4.00 to 4.82"
molecule=CC1(C)OC(=O)C(=CNCCN2CCN(CCO)CC2)C(=O)O1 measurement_target="LC3B (Homo sapiens, UniProt Q9GZQ8)" experimental_result="3.00 to 4.00"
molecule="Cc1ccccc1Cc1ccccc1C1CC(=O)C(=CN(C)C)C(=O)C1 (centres unmarked)" measurement_target="LC3B (Homo sapiens, UniProt Q9GZQ8)" experimental_result="4.82 to 5.52"
molecule=COc1cc(OC)c2c(c1Cl)O[C@@]1(C(=O)/C(=C\NCCN3CCN(CCO)CC3)C(=O)C[C@H]1C)C2=O measurement_target="LC3B (Homo sapiens, UniProt Q9GZQ8)" experimental_result="4.82 to 5.52"
molecule="O=C1CC(c2c3ccccc3cc3ccccc23)CC(=O)C1=CNCCN1CCN(CCO)CC1 (centres unmarked)" measurement_target="LC3B (Homo sapiens, UniProt Q9GZQ8)" experimental_result="> 5.52"
molecule="COc1ccc(C2CC(=O)C(=CNCCN3CCN(CCO)CC3)C(=O)C2)c(OC)c1 (centres unmarked)" measurement_target="LC3B (Homo sapiens, UniProt Q9GZQ8)" experimental_result="> 5.52"
molecule=COc1ccc2c(c1)C(=O)/C(=C/NCCN1CCN(CCO)CC1)C(=O)N2 measurement_target="LC3B (Homo sapiens, UniProt Q9GZQ8)" experimental_result="4.82 to 5.52"
molecule="O=C1CC(c2cccc(Br)c2)CC(=O)C1=CO (centres unmarked)" measurement_target="LC3B (Homo sapiens, UniProt Q9GZQ8)" experimental_result="4.82 to 5.52"
molecule="CN(C)c1ccc(Br)c(C2CC(=O)C(=CNCCN3CCN(CCO)CC3)C(=O)C2)c1 (centres unmarked)" measurement_target="LC3B (Homo sapiens, UniProt Q9GZQ8)" experimental_result="> 5.52"
molecule="CN(C)CCNC=C1C(=O)CC(c2ccccc2N2CCOCC2)CC1=O (centres unmarked)" measurement_target="LC3B (Homo sapiens, UniProt Q9GZQ8)" experimental_result="4.82 to 5.52"
molecule="CSC=C1C(=O)CC(c2ccccc2)CC1=O (centres unmarked)" measurement_target="LC3B (Homo sapiens, UniProt Q9GZQ8)" experimental_result="4.82 to 5.52"
molecule="O=C1CC(c2ccc(O)cc2)CC(=O)C1=CNCCN1CCN(CCO)CC1 (centres unmarked)" measurement_target="LC3B (Homo sapiens, UniProt Q9GZQ8)" experimental_result="> 5.52"
molecule="CN(C)CCNC=C1C(=O)CC(c2ccccc2)CC1=O (centres unmarked)" measurement_target="LC3B (Homo sapiens, UniProt Q9GZQ8)" experimental_result="> 5.52"
molecule=O=C1Nc2ccc(Cl)cc2C(=O)/C1=C/NCCN1CCN(CCO)CC1 measurement_target="LC3B (Homo sapiens, UniProt Q9GZQ8)" experimental_result="4.82 to 5.52"
molecule="O=C1CC(c2cccc(Oc3ccncc3)c2)CC(=O)C1=CNCCN1CCN(CCO)CC1 (centres unmarked)" measurement_target="LC3B (Homo sapiens, UniProt Q9GZQ8)" experimental_result="4.82 to 5.52"
molecule="CNc1cccc(C2CC(=O)C(=CNCCN3CCN(CCO)CC3)C(=O)C2)c1Br (centres unmarked)" measurement_target="LC3B (Homo sapiens, UniProt Q9GZQ8)" experimental_result="> 5.52"
molecule=O=C1CC(=Cc2ccccc2)C(=O)C1=CNCCN1CCN(CCO)CC1 measurement_target="LC3B (Homo sapiens, UniProt Q9GZQ8)" experimental_result="4.00 to 4.82"
molecule=O=C1CN(Cc2ccccc2)CC(=O)C1=CNCCN1CCN(CCO)CC1 measurement_target="LC3B (Homo sapiens, UniProt Q9GZQ8)" experimental_result="4.00 to 4.82"
molecule="Cc1cccc(Cc2ccccc2C2CC(=O)C(=CN(C)C)C(=O)C2)c1 (centres unmarked)" measurement_target="LC3B (Homo sapiens, UniProt Q9GZQ8)" experimental_result="4.82 to 5.52"
molecule="CN(C)C=C1C(=O)CC(c2cccc3ccccc23)CC1=O (centres unmarked)" measurement_target="LC3B (Homo sapiens, UniProt Q9GZQ8)" experimental_result="> 5.52"
molecule="CN1CCC(NC=C2C(=O)CC(c3ccccc3)CC2=O)CC1 (centres unmarked)" measurement_target="LC3B (Homo sapiens, UniProt Q9GZQ8)" experimental_result="4.00 to 4.82"
molecule="C=CC(=O)N1CCN(CCNC=C2C(=O)CC(c3ccc(C)cc3)CC2=O)CC1 (centres unmarked)" measurement_target="LC3B (Homo sapiens, UniProt Q9GZQ8)" experimental_result="> 5.52"
